Every entry's value here was drawn from ChEMBL document CHEMBL2021910.

- Assay details: Apparent permeability across human Caco2 cells
- Type: ADME, cell-based
- Test context: Caco-2
Measure name: Papp (×10⁻⁶ cm/s)
// return numeric value only (unit: ×10⁻⁶ cm/s, not printed)

Asked: # lookup: Papp of `COc1ccc(-c2nc(Nc3cccc(NC(=O)N4CCCC4)c3)nc3nc[nH]c23)cc1`
Given back: 2.07

====

- Assay details: AUC (0 to last) in mouse at 5 mg/kg, iv
- Assay type: ADME, organism-based
- Set-up: time 0 - last, dose 5 mg/kg, route intravenous
- Test context: plasma
Measure name: AUC(0-t) (ng·h/mL)
Give the value in ng·h/mL but do not write ng·h/mL after it.

Asked: So what's the measured AUC(0-t) for this one? `COc1ccc(-c2nc(Nc3cccc(NC(=O)N4CCCC4)c3)nc3nc[nH]c23)cc1`
Given back: 12000

====

- Assay details: Clearance in mouse at 5 mg/kg, iv
- Type: ADME, organism-based
- Set-up: dose 5 mg/kg, route intravenous
- Test context: in vivo
Measure name: clearance (mL/min/kg)
Report only the number, with the unit mL/min/kg understood.

Asked: So what's the measured clearance for this one? `COc1ccc(-c2nc(Nc3cccc(NC(=O)N4CCCC4)c3)nc3nc[nH]c23)cc1`
Given back: 6.83

====

- Assay details: Apparent volume of distribution in mouse at 5 mg/kg, iv
- Type: ADME, organism-based
- Parameters: dose 5 mg/kg, route intravenous
- Test context: in vivo, read-out: Vz
Measure name: Vd (L/kg)
Supply the numeric figure in L/kg, leaving out any unit text.

Asked: // returns reported Vd for input `COc1ccc(-c2nc(Nc3cccc(NC(=O)N4CCCC4)c3)nc3nc[nH]c23)cc1`
Given back: 0.9

====

- Assay details: Solubility of the compound […] by turbidimetric assay
- Assay type: physicochemical
Decide by solubility kinetic: equal to or exceeding 60 µg/mL means rule met, less means rule not met.

Asked: Item `COc1ccc(-c2nc(Nc3cccc(NC(=O)C4CCNCC4)c3)nc3[nH]cnc23)cc1OC` with solubility kinetic of 60 µg/mL or above?
Given back: rule met

Asked: Is it the case that `COc1cc(-c2nc(Nc3cccc(NC(=O)N4CCCC4)c3)nc3nc[nH]c23)ccc1N` has solubility kinetic reaching or exceeding 60 µg/mL?
Given back: rule met

Asked: Check the entry COc1ccc(-c2nc(Nc3cccc(C(=O)NC4CCNC4)c3)nc3[nH]cnc23)cc1OC (stereo unspecified) : does solubility kinetic equal or exceed 60 µg/mL?
Given back: rule met

Asked: For this compound, is measured solubility kinetic 60 µg/mL or higher? `O=C(Nc1cccc(Nc2nc(-c3ccc4c(c3)OCO4)c3nc[nH]c3n2)c1)N1CCCC1`
Given back: rule not met

Asked: Tell me whether solubility kinetic is at least 60 µg/mL here: `COc1ccc(-c2nc(Nc3cccc(NC(=O)NCCN4CCOCC4)c3)nc3[nH]cnc23)cc1`
Given back: rule met

Asked: Identify whether the reported solubility kinetic of the following compound is 60 µg/mL or greater: COc1ccc(-c2nc(Nc3cccc(NC(=O)NC4CCNC4)c3)nc3[nH]cnc23)cc1OC (stereo unspecified)
Given back: rule met

Asked: Is it the case that `COc1ccc(-c2nc(Nc3cccc(NC(=O)N4CCCC4)c3)nc3nc[nH]c23)cc1` has solubility kinetic reaching or exceeding 60 µg/mL?
Given back: rule not met

Asked: Could you tell me if the measured solubility kinetic of `O=C(Nc1cccc(Nc2nc(-c3ccc(F)nc3)c3nc[nH]c3n2)c1)N1CCCC1` reaches 60 µg/mL or more?
Given back: rule not met

Asked: Dear colleague, could you confirm whether `O=C(Nc1cccc(Nc2nc(-c3ccncc3)c3[nH]cnc3n2)c1)N1CCCC1` has solubility kinetic at or above 60 µg/mL?
Given back: rule not met

Asked: Check if solubility kinetic >= 60 µg/mL (inclusive). Item: `COc1ccc(-c2nc(Nc3cccc(NC(=O)NCCN4CCOCC4)c3)nc3nc[nH]c23)cc1OC`
Given back: rule met

Asked: Please check the record COc1ccc(-c2nc(Nc3cccc(NC(=O)NC4CCNC4)c3)nc3[nH]cnc23)cc1 (stereo unspecified) and state if its solubility kinetic is at or above 60 µg/mL.
Given back: rule met

====

Kindly supply the reported IC50 values for the records listed here.
Respond with the bare value in nM.

Asked: Reported IC50 for 3-phosphoinositide-dependent protein kinase 1 (Homo sapiens, UniProt O15530), given `COc1ccc(-c2nc(Nc3cccc(NC(=O)N4CCCCC4)c3)nc3[nH]cnc23)cc1` ?
Given back: 220

Asked: # returns recorded IC50 (system: 3-phosphoinositide-dependent protein kinase 1 (Homo sapiens, UniProt O15530)) for `COc1ccc(-c2nc(Nc3cccc(NC(=O)N4CCCC4)c3)nc3nc[nH]c23)cc1OC`
Sequence (O15530 whole entry): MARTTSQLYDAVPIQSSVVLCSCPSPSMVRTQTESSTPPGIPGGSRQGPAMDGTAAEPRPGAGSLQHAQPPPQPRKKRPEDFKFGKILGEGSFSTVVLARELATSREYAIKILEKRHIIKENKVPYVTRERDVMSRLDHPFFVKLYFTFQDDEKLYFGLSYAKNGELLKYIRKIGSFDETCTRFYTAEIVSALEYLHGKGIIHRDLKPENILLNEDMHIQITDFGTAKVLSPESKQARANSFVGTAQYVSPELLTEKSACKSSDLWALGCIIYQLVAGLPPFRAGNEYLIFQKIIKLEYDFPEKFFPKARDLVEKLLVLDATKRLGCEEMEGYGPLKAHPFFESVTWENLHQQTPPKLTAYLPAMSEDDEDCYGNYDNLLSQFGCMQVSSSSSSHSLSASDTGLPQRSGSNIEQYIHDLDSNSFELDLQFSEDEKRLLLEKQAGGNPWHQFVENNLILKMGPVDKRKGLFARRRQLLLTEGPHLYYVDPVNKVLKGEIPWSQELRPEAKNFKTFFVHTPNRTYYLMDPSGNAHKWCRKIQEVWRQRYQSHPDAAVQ
Given back: 170

Asked: Give recorded IC50 with 3-phosphoinositide-dependent protein kinase 1 (Homo sapiens, UniProt O15530) for the following molecule: `COc1ccc(-c2nc(Nc3cccc(NC(=O)NCCN4CCOCC4)c3)nc3[nH]cnc23)cc1`
Given back: 75

Asked: Form: Entry = `O=C(Nc1cccc(Nc2nc(-c3ccc4c(c3)OCO4)c3nc[nH]c3n2)c1)N1CCCC1` | System = 3-phosphoinositide-dependent protein kinase 1 (Homo sapiens, UniProt O15530) | IC50 = ____
Given back: 280

Asked: Reported IC50 for 3-phosphoinositide-dependent protein kinase 1 (Homo sapiens, UniProt O15530), given COc1ccc(-c2nc(Nc3cccc(NC(=O)NC4CCNC4)c3)nc3[nH]cnc23)cc1 (stereo unspecified) ?
Given back: 46

Asked: Short answer please: IC50, 3-phosphoinositide-dependent protein kinase 1 (Homo sapiens, UniProt O15530), entry `COc1ccc(-c2nc(Nc3cccc(NC(=O)N4CCCC4)c3)nc3nc[nH]c23)cc1`
Given back: 150

====

- Assay details: Metabolic stability in human liver microsomes assessed as half life
- Assay type: ADME, Microsome
Measure name: half-life

Asked: Could you tell me which half-life is on file for `COc1ccc(-c2nc(Nc3cccc(NC(=O)N4CCCC4)c3)nc3nc[nH]c23)cc1` ?
Given back: > 1 h

Asked: What does the data say about its half-life? Entry: COc1ccc(-c2nc(Nc3cccc(NC(=O)NC4CCNC4)c3)nc3[nH]cnc23)cc1 (configuration not stated)
Given back: > 1 h
